Please go through the items and note down their EC50.
- systemTested: hGcgR (Homo sapiens, UniProt P47871)
- Sequence (P47871 26-477): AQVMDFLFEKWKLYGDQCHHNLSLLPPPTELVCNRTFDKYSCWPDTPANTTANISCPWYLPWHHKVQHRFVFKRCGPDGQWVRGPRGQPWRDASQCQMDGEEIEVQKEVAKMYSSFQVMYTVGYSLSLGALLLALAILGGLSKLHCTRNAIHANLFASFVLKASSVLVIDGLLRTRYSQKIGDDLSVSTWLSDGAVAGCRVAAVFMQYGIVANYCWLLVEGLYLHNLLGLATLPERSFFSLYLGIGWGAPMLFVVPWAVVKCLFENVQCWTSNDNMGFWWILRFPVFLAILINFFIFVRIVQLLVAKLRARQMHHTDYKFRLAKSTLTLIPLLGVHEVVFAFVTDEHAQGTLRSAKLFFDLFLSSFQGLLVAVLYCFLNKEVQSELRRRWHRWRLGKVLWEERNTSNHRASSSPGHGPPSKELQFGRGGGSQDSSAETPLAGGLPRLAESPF
- measurementNotes: Functional cAMP activation in the presence of 0.1% casein (no HSA);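 further: intracellular cAMP rise after 30 min at 37 °C, read by HTRF against a cAMP standard curve, scaled from buffer only (0%) to maximal control ligand response (100%)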
- Assay type: cell-based
- cond: read-out: Relative cAMP EC50, hGcgR
Starred links: 1 amine or outer side, 2 acyl side, 3 side chain; linkers in the order of their positions; H or OH if unused. Non-standard residues stand in square brackets, D forms with d. Groups on a side chain read outwards from the residue. *: point of attachment. C18 diacid = O=C(O)CCCCCCCCCCCCCCCCC(=O)*; αMePhe(2-F) = C[C@](N)(Cc1ccccc1F)C(=O)O; γGlu = O=C(O)[C@H](CCC(=O)[*:2])N[*:1]; αMe4Pal = C[C@](N)(Cc1ccncc1)C(=O)O; αMeY = C[C@](N)(Cc1ccc(O)cc1)C(=O)O; 4Pal = N[C@@H](Cc1ccncc1)C(=O)O; αMeL = CC(C)C[C@](C)(N)C(=O)O; αMeS = C[C@](N)(CO)C(=O)O; Orn = NCCC[C@H](N)C(=O)O; AEEA = NCCOCCOCC(=O)O; Aib = CC(C)(N)C(=O)O
Give a bare numeral; the unit nM is implied.

Any idea what its EC50 is? The substance is H-Y[Aib]QGT[αMePhe(2-F)]TSD[4Pal][αMeS]I[αMeL]LD[Orn]K([AEEA-γGlu-γGlu-C18 diacid])AQ[Aib][Orn]FIEYLIEAGPSSGEPPPEEG-NH2 [Example 485]
4.29

Another substance: H-Y[Aib]QGT[αMePhe(2-F)]TSD[4Pal]SI[αMeL]LD[Orn]K([γGlu-γGlu-C18 diacid])AQ[αMe4Pal]EFI[dE][αMeY]LQEGGPSSGAPPPSGS-NH2 [Example 647]
18.8

Same again, this time with H-Y[Aib]QGT[αMePhe(2-F)]TSD[4Pal]SI[αMeL]LD[Orn]K([γGlu-γGlu-C18 diacid])AQ[αMe4Pal]EFI[dE][αMeY]LQEGGPSSGEPPPSGS-NH2 [Example 649]
21.2

Again, but for H-Y[Aib]QGT[αMePhe(2-F)]TSD[4Pal]SILLDKK([γGlu-γGlu-C18 diacid])AQ[Aib]AFIEYLEEGGPSSGAPPPEGTE-NH2 [Example 659]
5.89

Let us now turn to H-Y[Aib]QGT[αMePhe(2-F)]TSD[4Pal]SI[αMeL]LD[Orn]K([γGlu-γGlu-C18 diacid])AQ[αMe4Pal][Orn]FI[dE][αMeY]LIEGGPSSGEPPPSGE-NH2 [Example 682]
1.91

Note, next up: H-Y[Aib]QGT[αMePhe(2-F)]TSD[4Pal][αMeS]I[αMeL]LD[Orn]K([γGlu-γGlu-C18 diacid])AQ[Aib]NFI[dE][αMeY]LQEGGPSSGEPPPEGTGE-NH2 [Example 527]
6.99

Further, for H-Y[Aib]QGT[αMePhe(2-F)]TSD[4Pal][αMeS]I[αMeL]LD[Orn]K([AEEA-γGlu-C18 diacid])AQ[Aib][Orn]FI[dE][αMeY]LIEGGPSSGEPPPEEG-NH2 [Example 462] ?
1.69

Same again, this time with H-Y[Aib]QGT[αMePhe(2-F)]TSD[4Pal][αMeS]I[αMeL]LD[Orn]K([γGlu-γGlu-C18 diacid])AQ[Aib][Orn]FI[dE][αMeY]LQEGGPSSGEPPPEGEEE-NH2 [Example 588]
4.72

Also check H-Y[Aib]QGT[αMePhe(2-F)]TSD[4Pal][αMeS]I[αMeL]LD[Orn]K([γGlu-γGlu-C18 diacid])AQ[Aib][Orn]FI[dE][αMeY]LQEGGPSSGEPPPSGTEEE-NH2 [Example 573]
4.02

Proceed to H-Y[Aib]QGT[αMePhe(2-F)]TSD[4Pal]SI[αMeL]LD[Orn]K([γGlu-γGlu-C18 diacid])AQ[αMe4Pal][Orn]FI[dE][αMeY]LIEGGPSSGEPPPESE-NH2 [Example 685]
2.18

Next substance up: H-Y[Aib]QGT[αMePhe(2-F)]TSD[4Pal][αMeS]I[αMeL]LD[Orn]K([AEEA-γGlu-C18 diacid])AQ[αMe4Pal]EFI[dE][αMeY]LVEGGPSSGAPPPSGE-NH2 [Example 749]
2.21

Another substance to look at: H-Y[Aib]QGT[αMePhe(2-F)]TSD[4Pal]SILLDKK([γGlu-γGlu-C18 diacid])AQ[Aib]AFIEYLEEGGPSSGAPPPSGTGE-NH2 [Example 510]
5.44

Another substance to look at: H-Y[Aib]QGT[αMePhe(2-F)]TSD[4Pal][αMeS]I[αMeL]LD[Orn]K([γGlu-γGlu-C18 diacid])AQ[Aib][Orn]FI[dE][αMeY]LIEGGPSSGEPPPSEG-NH2 [Example 480]
1.47

// query: H-Y[Aib]QGT[αMePhe(2-F)]TSD[4Pal][αMeS]I[αMeL]LD[Orn]K([γGlu-γGlu-C18 diacid])AQ[Aib][Orn]FI[dE][αMeY]LAEGGPSSGEPPPSGAEE-NH2 [Example 591]
4.67

Now the substance H-Y[Aib]QGT[αMePhe(2-F)]TSD[4Pal]SI[αMeL]LD[Orn]K([AEEA-γGlu-C18 diacid])AQ[Aib][Orn]FIEYLIEGGPSSGEPPPEEG-NH2 [Example 477]
5.26

What about H-Y[Aib]QGT[αMePhe(2-F)]TSD[4Pal][αMeS]I[αMeL]LD[Orn]K([γGlu-γGlu-C18 diacid])AQ[αMe4Pal]EFI[dE][αMeY]LVEGGPSSGEPPPSGGGE-NH2 [Example 739] ?
1.59

What about H-Y[Aib]Q[dA]T[αMePhe(2-F)]TSD[4Pal][αMeS]I[αMeL]LD[Orn]K([AEEA-γGlu-C18 diacid])AQ[αMe4Pal]EFI[dE][αMeY]LIEGGPSSGEPPPSGTGE-NH2 [Example 766] ?
0.689

Next entry: H-Y[Aib]QGT[αMePhe(2-F)]TSD[4Pal][αMeS]I[αMeL]LD[Orn]K([AEEA-γGlu-C18 diacid])AQ[Aib]NFIEYLIEGGPSSGEPPPEGE-NH2 [Example 483]
1.77

Another substance: H-Y[Aib]QGT[αMePhe(2-F)]TSD[4Pal]SI[αMeL]LD[Orn]K([γGlu-γGlu-C18 diacid])AQ[αMe4Pal][Orn]FI[dE][αMeY]LIEGGPSSGEPPPEGE-NH2 [Example 683]
1.57

Next substance up: H-Y[Aib]QGT[αMePhe(2-F)]TSD[4Pal]SI[αMeL]LD[Orn]K([γGlu-γGlu-C18 diacid])AQ[αMe4Pal][Orn]FI[dE][αMeY]LIEGGPSSGEPPPETE-NH2 [Example 686]
2.43

All values here come from patent US20240270821A1.
